molecular target: HCV polymerase 1A (Δ21 NS5B, H77) (Hepatitis C virus genotype 1a, UniProt P27958); construct: 20 to 50 nM Δ21 NS5B; assay: biochemical
Sequence (P27958 2421-2990, stated change not applied): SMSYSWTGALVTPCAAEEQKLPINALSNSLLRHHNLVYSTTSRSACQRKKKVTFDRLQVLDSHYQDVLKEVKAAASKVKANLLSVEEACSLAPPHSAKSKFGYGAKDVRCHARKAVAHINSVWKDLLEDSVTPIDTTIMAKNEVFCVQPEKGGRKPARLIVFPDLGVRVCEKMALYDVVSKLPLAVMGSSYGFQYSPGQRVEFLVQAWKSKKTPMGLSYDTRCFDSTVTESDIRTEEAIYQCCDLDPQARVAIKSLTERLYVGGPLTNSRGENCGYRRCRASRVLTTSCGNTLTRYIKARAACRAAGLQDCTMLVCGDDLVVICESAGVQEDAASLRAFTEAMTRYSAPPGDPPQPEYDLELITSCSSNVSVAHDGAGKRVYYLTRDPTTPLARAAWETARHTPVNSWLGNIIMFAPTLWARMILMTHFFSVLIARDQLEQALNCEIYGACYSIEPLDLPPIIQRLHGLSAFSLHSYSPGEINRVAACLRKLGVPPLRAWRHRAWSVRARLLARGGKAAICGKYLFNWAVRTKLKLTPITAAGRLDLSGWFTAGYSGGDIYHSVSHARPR

[
  {
    "compound": "COc1c(/C=C/c2ccc(NS(C)(=O)=O)cc2NC(=O)OC(C)(C)C)cc(-n2ccc(=O)[nH]c2=O)cc1C(C)(C)C [IB-L1-1.32]",
    "assay.system": "HCV polymerase 1A (Δ21 NS5B, H77) (Hepatitis C virus genotype 1a, UniProt P27958)",
    "IC50": "100 to 1000 nM"
  },
  {
    "compound": "COc1c(/C=C/c2ccc(NS(C)(=O)=O)cc2C(=O)O)cc(-n2ccc(=O)[nH]c2=O)cc1C(C)(C)C [IB-L1-1.4]",
    "assay.system": "HCV polymerase 1A (Δ21 NS5B, H77) (Hepatitis C virus genotype 1a, UniProt P27958)",
    "IC50": "< 10 nM"
  },
  {
    "compound": "COc1c(/C=C/c2ccc(NS(C)(=O)=O)cc2)cc(-n2ccc(=O)[nH]c2=O)cc1C(C)(C)C [IB-L1-1.1]",
    "assay.system": "HCV polymerase 1A (Δ21 NS5B, H77) (Hepatitis C virus genotype 1a, UniProt P27958)",
    "IC50": "< 10 nM"
  },
  {
    "compound": "COc1c(/C=C/c2ccc(NS(C)(=O)=O)cc2)cc(-n2ccc(=O)[nH]c2=O)cc1-c1cccnc1 [IB-L1-1.53]",
    "assay.system": "HCV polymerase 1A (Δ21 NS5B, H77) (Hepatitis C virus genotype 1a, UniProt P27958)",
    "IC50": "> 1000 nM"
  }
]
